Origin of the recorded values: paper PMC8880361

# collection of pIC50 values tested on VEGFR-2 (Homo sapiens, UniProt P35968)
# Sequence (P35968 20-1356): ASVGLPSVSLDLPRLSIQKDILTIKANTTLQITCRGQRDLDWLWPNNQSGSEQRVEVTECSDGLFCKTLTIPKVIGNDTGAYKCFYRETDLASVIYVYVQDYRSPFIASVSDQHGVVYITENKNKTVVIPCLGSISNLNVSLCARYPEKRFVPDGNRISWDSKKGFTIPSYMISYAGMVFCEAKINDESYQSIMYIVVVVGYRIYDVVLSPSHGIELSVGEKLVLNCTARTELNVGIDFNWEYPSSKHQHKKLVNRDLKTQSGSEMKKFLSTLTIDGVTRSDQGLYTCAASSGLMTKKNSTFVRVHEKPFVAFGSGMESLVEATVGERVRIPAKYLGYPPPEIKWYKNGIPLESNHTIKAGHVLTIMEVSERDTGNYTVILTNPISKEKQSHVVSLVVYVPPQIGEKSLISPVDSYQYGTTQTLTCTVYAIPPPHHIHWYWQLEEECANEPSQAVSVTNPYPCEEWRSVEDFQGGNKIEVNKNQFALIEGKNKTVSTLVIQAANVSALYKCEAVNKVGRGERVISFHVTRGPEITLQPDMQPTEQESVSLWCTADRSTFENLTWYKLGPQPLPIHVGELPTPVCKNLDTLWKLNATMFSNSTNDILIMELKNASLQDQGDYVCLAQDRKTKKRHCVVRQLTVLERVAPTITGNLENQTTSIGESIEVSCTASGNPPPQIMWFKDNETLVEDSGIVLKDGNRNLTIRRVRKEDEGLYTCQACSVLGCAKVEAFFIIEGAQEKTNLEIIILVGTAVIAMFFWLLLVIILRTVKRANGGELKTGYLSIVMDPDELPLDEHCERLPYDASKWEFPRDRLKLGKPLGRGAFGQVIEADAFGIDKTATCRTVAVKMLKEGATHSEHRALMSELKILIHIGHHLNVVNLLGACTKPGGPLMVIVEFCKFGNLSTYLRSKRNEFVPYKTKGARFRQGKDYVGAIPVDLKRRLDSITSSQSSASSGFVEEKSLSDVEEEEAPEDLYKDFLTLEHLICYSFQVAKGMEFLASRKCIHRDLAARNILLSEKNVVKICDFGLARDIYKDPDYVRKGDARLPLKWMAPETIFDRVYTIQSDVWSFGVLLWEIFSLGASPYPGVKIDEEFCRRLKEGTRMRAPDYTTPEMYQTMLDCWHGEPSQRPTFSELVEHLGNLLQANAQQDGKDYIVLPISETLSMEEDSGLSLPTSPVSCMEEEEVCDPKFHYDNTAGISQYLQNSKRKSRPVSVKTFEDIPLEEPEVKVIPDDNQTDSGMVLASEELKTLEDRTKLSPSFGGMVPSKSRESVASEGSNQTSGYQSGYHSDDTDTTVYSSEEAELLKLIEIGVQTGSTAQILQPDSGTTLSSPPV
Reminder that pIC50 is minus the log10 of a molar concentration.

The examples below pair each entry with its known result.
| compound | pIC50 |
| --- | --- |
| Cc1ccc(C=C2SC(=O)N(CC(=O)Nc3ccc(S(=O)(=O)NC(=S)NC4CCCCC4)cc3)C2=O)cc1 | 7.10 |
| NS(=O)(=O)c1ccc(NC(=O)CN2C(=O)CSC2=O)cc1 | 6.03 |

Turning now to a further compound:
Query: // query pIC50 value for entry O=C(CN1C(=O)SC(=Cc2ccccc2)C1=O)Nc1ccc(S(=O)(=O)NC(=S)NC2CCCCC2)cc1
Response: 7.10

###

# Tested on: HepG2
# assaySummary: In vitro cytotoxicity, MTT colorimetric assay
# Assay type: cell-based, human
# measurementConditions: Homo sapiens, HepG2; MTT; mean ± S.D. of triplet separate experiments
endpoint: pIC50
Reminder that pIC50 is minus the log10 of a molar concentration.

The examples below pair each entry with its known result.
| compound | pIC50 |
| --- | --- |
| CCNC(=S)NS(=O)(=O)c1ccc(NC(=O)CN2C(=O)SC(=Cc3ccccc3)C2=O)cc1 | 4.85 |
| Cc1ccc(C=C2SC(=O)N(CC(=O)Nc3ccc(S(=O)(=O)NC(=S)NC4CCCCC4)cc3)C2=O)cc1 | 5.05 |
| NS(=O)(=O)c1ccc(NC(=O)CN2C(=O)SC(=Cc3ccccc3)C2=O)cc1 | 4.28 |

Query: // query pIC50 value for entry COc1cccc2c1C(=O)c1c(O)c3c(c(O)c1C2=O)C[C@@](O)(C(=O)CO)C[C@@H]3O[C@H]1C[C@H](N)[C@H](O)[C@H](C)O1 [Doxorubicin, reference compound]
Response: 5.10

###

endpoint: melting point

Query: // query melting point value for entry O=C(CN1C(=O)SC(=Cc2ccccc2)C1=O)Nc1ccc(S(=O)(=O)NC(=S)Nc2ccccc2)cc1
Response: 286 to 288 °C

Query: // query melting point value for entry Cc1ccc(C=C2SC(=O)N(CC(=O)Nc3ccc(S(N)(=O)=O)cc3)C2=O)cc1
Response: 240 to 242 °C

Query: // query melting point value for entry O=C(CN1C(=O)CSC1=O)Nc1ccc(S(=O)(=O)NC(=S)Nc2ccccc2)cc1
Response: 262 to 264 °C

Query: // query melting point value for entry O=C(CN1C(=O)CSC1=O)Nc1ccc(S(=O)(=O)NC(=S)NC2CCCCC2)cc1
Response: 267 to 269 °C

Query: // query melting point value for entry NS(=O)(=O)c1ccc(NC(=O)CN2C(=O)SC(=Cc3ccccc3)C2=O)cc1
Response: 226 to 228 °C

Query: // query melting point value for entry CCNC(=S)NS(=O)(=O)c1ccc(NC(=O)CN2C(=O)SC(=Cc3ccccc3)C2=O)cc1
Response: 282 to 284 °C

Query: // query melting point value for entry CCNC(=S)NS(=O)(=O)c1ccc(NC(=O)CN2C(=O)SC(=Cc3ccc(C)cc3)C2=O)cc1
Response: 285 to 287 °C

###

# Test system: isolated pancreatic islets of rats
# assaySummary: In vitro insulin secretion assay (sandwich enzyme immunoassay)
# Type: cell-based
# measurementConditions: Pancreatic islet; isolated rat pancreatic islets; concentration for 50% of the maximum action; n = 3; read-out: EC50 Insulin Secreting Activity
# Description: Compounds 5a–c, 6a–c and 7a–c were also assessed to establish their insulin-secretion activities in vitro against isolated pancreatic islets of rats through the quantitative sandwich technique of enzyme immunoassay. Glimiperide was applied as the standard. The findings are described as the EC50 values (Table 4).
// values below are reported EC50
Number only, in nM; omit the unit.

The examples below pair each entry with its known result.
| compound | experimentalValue |
| --- | --- |
| Cc1ccc(C=C2SC(=O)N(CC(=O)Nc3ccc(S(=O)(=O)NC(=S)NC4CCCCC4)cc3)C2=O)cc1 | 700 |
| O=C(CN1C(=O)CSC1=O)Nc1ccc(S(=O)(=O)NC(=S)NC2CCCCC2)cc1 | 1000 |

Turning now to a further compound:
Query: // query EC50 value for entry O=C(CN1C(=O)CSC1=O)Nc1ccc(S(=O)(=O)NC(=S)Nc2ccccc2)cc1
Response: 1130
